# measurement-protocol: Half life in rat liver microsomes
# Assay type: ADME, Microsome

- record-smiles: "COc1ncc(C(=O)N2CCN(C(=O)/C=C/c3ccc4c(c3)OC(F)(F)O4)CC2)cn1"
  half-life: "> 3.11 h"

###

# measurement-protocol: Aqueous solubility of compound in SGF at pH 2.26
# Type: physicochemical

- record-smiles: "COc1ncc(C(=O)N2CCN(C(=O)/C=C/c3ccc4c(c3)OC(F)(F)O4)CC2)cn1"
  unit-info: "µM"
  solubility: 63

###

# measurement-protocol: Half life in ICR mouse at 1 mg/kg,iv measured upto 24 hrs
# Assay type: ADME, organism-based
# condition-summary: in vivo

- record-smiles: "O=C(/C=C/c1ccc2c(c1)OC(F)(F)O2)N1CCN(C(=O)N2CCC2)CC1"
  unit-info: "min"
  half-life: 25.2

Entry source: ChEMBL document CHEMBL5375977
